# ASSAY SUMMARY: Solubility assay (kinetic solubility, PBS pH 7)
# Format: physicochemical
# COND: pH 7, aqueous buffer, kinetic from dmso stock, pH 7, PBS; read-out: Solubility
Positions of bridges follow the written chain, without caps; N, C: chain ends. Non-standard residues stand in square brackets, D forms with d. Residues, ends and D or L forms follow the SMILES beside them. R8 = C=CCCCCCC[C@@](C)(N)C(=O)O; Cba = N[C@@H](CC1CCC1)C(=O)O; S5 = C=CCCC[C@](C)(N)C(=O)O
# key: entry, value: solubility kinetic

{"columns": ["COMPOUND", "solubility kinetic / µM"],
 "data": [
  ["CC(=O)N[C@@H](Cc1c[nH]cn1)C(=O)N[C@H](C(=O)N[C@@H](Cc1ccccc1)C(=O)N[C@]1(C)CCCCCCC=CCCC[C@@](C)(C(=O)N[C@@H](CO)C(=O)N[C@@H](C)C(=O)N[C@@H](C)C(N)=O)NC(=O)[C@H](CC2CCC2)NC(=O)[C@H](CC(C)C)NC(=O)[C@H](CCC(N)=O)NC(=O)[C@H](Cc2c[nH]c3ccccc23)NC(=O)[C@H](Cc2ccc(O)cc2)NC(=O)[C@H](CCC(=O)O)NC1=O)[C@@H](C)O [MP-197, ATSP-7041 (L1H)] (Ac-HTF[R8]EYWQL[Cba][S5]SAA-NH2; staple 4-11)", 17],
  ["CC(=O)N[C@@H](Cc1ccccc1)C(=O)N[C@]1(C)CCCCCCC=CCCC[C@@](C)(C(=O)N[C@@H](CO)C(N)=O)NC(=O)[C@H](CC2CCC2)NC(=O)[C@H](CC(C)C)NC(=O)[C@H](CCC(N)=O)NC(=O)[C@H](Cc2c[nH]c3ccccc23)NC(=O)[C@H](Cc2ccc(O)cc2)NC(=O)[C@H](CCC(=O)O)NC1=O [MP-203] (Ac-F[R8]EYWQL[Cba][S5]S-NH2; staple 2-9)", 96]
]}
